Each recorded value in this set is attributed to paper PMC11721465.

- ASSAYED TARGET: T1, Human IL-34 (19–241) (human, UniProt Q6ZMJ4 19-241)
- T1 construct: IL-34, human, residues 19-241; source: Expi293F cells, secreted, purified from the media using NiNTA chromatography
- T1 sequence (looked up): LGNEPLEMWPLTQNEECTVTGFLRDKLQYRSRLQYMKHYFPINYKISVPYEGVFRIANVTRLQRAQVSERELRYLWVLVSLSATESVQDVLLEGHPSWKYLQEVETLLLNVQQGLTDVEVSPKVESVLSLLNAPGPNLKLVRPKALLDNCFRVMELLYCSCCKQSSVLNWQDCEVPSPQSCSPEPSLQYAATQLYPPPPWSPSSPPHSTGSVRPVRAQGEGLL
- PROCEDURE DETAILS: BLI; biotinylated TREM2 WT or variant immobilised on SA biosensors; IL-34 62.5–1000 nM; PBS with 0.1% BSA and 0.005% Tween-20; 1:1 kinetic fits
- TEST PARAMETERS: both partners purified
QUANTITY NAME: Kd
Field note: include the unit after the figure.

Answered cases to consult:
binder="TREM2 (19–134) W44D/L69D/L71D, biotinylated (domain or fragment, human, UniProt Q9NZC2 19-134, looked up, biotin on the C-terminal BirA biotinylation sequence (enzymatic, BirA), source: Expi293F cells, purified, enzymatically biotinylated using BirA) HNTTVFQGVAGQSLQVSCPYDSMKHDGRRKAWCRQLGEKGPCQRVVSTHNDWDLSFLRRWNGSTAITDDTLGGTLTITLRNLQPHDAGLYQCQSLHGSEADTLRKVLVEVLADPLD" obs_value="25.8 nM"
binder="TREM2 (19–134) L69D/L71D, biotinylated (domain or fragment, human, UniProt Q9NZC2 19-134, looked up, biotin on the C-terminal BirA biotinylation sequence (enzymatic, BirA), source: Expi293F cells, purified, enzymatically biotinylated using BirA) HNTTVFQGVAGQSLQVSCPYDSMKHWGRRKAWCRQLGEKGPCQRVVSTHNDWDLSFLRRWNGSTAITDDTLGGTLTITLRNLQPHDAGLYQCQSLHGSEADTLRKVLVEVLADPLD" obs_value="20.2 nM"
binder="TREM2 (19–134) R62H, biotinylated (domain or fragment, human, UniProt Q9NZC2 19-134, looked up, biotin on the C-terminal BirA biotinylation sequence (enzymatic, BirA), AD risk variant that occurs in nature; source: Expi293F cells, purified, enzymatically biotinylated using BirA) HNTTVFQGVAGQSLQVSCPYDSMKHWGRRKAWCRQLGEKGPCQHVVSTHNLWLLSFLRRWNGSTAITDDTLGGTLTITLRNLQPHDAGLYQCQSLHGSEADTLRKVLVEVLADPLD" obs_value="75 nM"
binder="TREM2 (19–134) R122E, biotinylated (domain or fragment, human, UniProt Q9NZC2 19-134, looked up, biotin on the C-terminal BirA biotinylation sequence (enzymatic, BirA), source: Expi293F cells, purified, enzymatically biotinylated using BirA) HNTTVFQGVAGQSLQVSCPYDSMKHWGRRKAWCRQLGEKGPCQRVVSTHNLWLLSFLRRWNGSTAITDDTLGGTLTITLRNLQPHDAGLYQCQSLHGSEADTLEKVLVEVLADPLD" obs_value="29.4 nM"
binder="TREM2 (19–134) R122D/K123D, biotinylated (domain or fragment, human, UniProt Q9NZC2 19-134, looked up, biotin on the C-terminal BirA biotinylation sequence (enzymatic, BirA), source: Expi293F cells, purified, enzymatically biotinylated using BirA) HNTTVFQGVAGQSLQVSCPYDSMKHWGRRKAWCRQLGEKGPCQRVVSTHNLWLLSFLRRWNGSTAITDDTLGGTLTITLRNLQPHDAGLYQCQSLHGSEADTLDDVLVEVLADPLD" obs_value="18.5 nM"

INPUT: # lookup: Kd of TREM2 (19–134) R47H, biotinylated (domain or fragment, human, UniProt Q9NZC2 19-134, looked up, biotin on the C-terminal BirA biotinylation sequence (enzymatic, BirA), AD risk variant that occurs in nature; source: Expi293F cells, purified, enzymatically biotinylated using BirA) HNTTVFQGVAGQSLQVSCPYDSMKHWGRHKAWCRQLGEKGPCQRVVSTHNLWLLSFLRRWNGSTAITDDTLGGTLTITLRNLQPHDAGLYQCQSLHGSEADTLRKVLVEVLADPLD
OUTPUT: 79.8 nM
